- Test system: A549
- assay.summary: Cytotoxicity against human A549 cells after 3 days
- Format: functional, cell-based
- setup.conditions: Homo sapiens, A549, 72 h
value.kind: IC50

Task item: Look up IC50: CC[C@@]1(O)C(=O)OCc2c1cc1n(c2=O)Cc2cc3cc(-c4ccc(C(=O)O)cc4)ccc3nc2-1
Reply: 11600 nM

Task item: Look up IC50: CC[C@@]1(O)C(=O)OCc2c1cc1n(c2=O)Cc2cc3cc(-c4ccc(Cl)cc4)ccc3nc2-1
Reply: 320 nM

Task item: Look up IC50: CC[C@@]1(O)C(=O)OCc2c1cc1n(c2=O)Cc2cc3cc(-c4cccs4)ccc3nc2-1
Reply: 10 nM

Task item: Look up IC50: CC[C@@]1(O)C(=O)OCc2c1cc1n(c2=O)Cc2cc3cc(-c4ccccc4Cl)ccc3nc2-1
Reply: 1120 nM

Task item: Look up IC50: CC[C@@]1(O)C(=O)OCc2c1cc1n(c2=O)Cc2cc3cc(-c4ccc(C(=O)OC)cc4)ccc3nc2-1
Reply: 510 nM

Task item: Look up IC50: CC[C@@]1(O)C(=O)OCc2c1cc1n(c2=O)Cc2cc3cc(-c4ccncc4)ccc3nc2-1
Reply: 67 nM

Task item: Look up IC50: CC[C@@]1(O)C(=O)OCc2c1cc1n(c2=O)Cc2cc3c(CN(C)C)c(O)ccc3nc2-1
Reply: 71 nM

Task item: Look up IC50: CC[C@@]1(O)C(=O)OCc2c1cc1n(c2=O)Cc2cc3cc(-c4ccccc4N(C)C)ccc3nc2-1
Reply: 230 nM

Task item: Look up IC50: CC[C@@]1(O)C(=O)OCc2c1cc1n(c2=O)Cc2cc3cc(-c4ccc(N(C)C)cc4)ccc3nc2-1
Reply: 2680 nM
